conditions: human gut metagenome, 24 h, 2 µM; further: call rule not given here
OUTCOME MEASURE: Bacterial Biotransformation

Completed entries (count: 4):
molecule="CC(=O)O[C@]1(C(C)=O)CC[C@H]2[C@@H]3C=C(Cl)C4=CC(=O)[C@@H]5C[C@@H]5[C@]4(C)[C@H]3CC[C@@]21C [CYPROTERONE ACETATE]" outcome_measure="Bacterial Biotransformation" test_result="Compound metabolized"
molecule="CC(C)NCC(O)COc1ccc(CCOCC2CC2)cc1 (centres undefined) [BETAXOLOL]" outcome_measure="Bacterial Biotransformation" test_result="Compound NOT metabolized"
molecule="NC12CC3CC(CC(C3)C1)C2 [AMANTADINE]" outcome_measure="Bacterial Biotransformation" test_result="Compound NOT metabolized"
molecule="O=C(CCCN1CCC(O)(c2ccc(Cl)cc2)CC1)c1ccc(F)cc1 [HALOPERIDOL]" outcome_measure="Bacterial Biotransformation" test_result="Compound NOT metabolized"

If you can, please state the reported Bacterial Biotransformation value of C=CCN1CC[C@]23c4c5ccc(O)c4O[C@H]2C(=O)CC[C@@]3(O)[C@H]1C5 [NALOXONE] . Compound NOT metabolized

If you can, please state the reported Bacterial Biotransformation value of CCCC(=O)Nc1ccc(OCC(O)CNC(C)C)c(C(C)=O)c1 (centres undefined) [ACEBUTOLOL] . Compound metabolized

If you can, please state the reported Bacterial Biotransformation value of Nc1ccc(/N=N/c2ccccc2)c(N)n1 [PHENAZOPYRIDINE] . Compound metabolized

If you can, please state the reported Bacterial Biotransformation value of O=C(Nc1ccccc1)OCC(CN1CCCCC1)OC(=O)Nc1ccccc1 (centres undefined) [DIPERODON] . Compound metabolized

If you can, please state the reported Bacterial Biotransformation value of c1ccc([C@H]2CN3CCSC3=N2)cc1 [LEVAMISOLE] . Compound metabolized
